# Tested on: DMS-114
# PROTOCOL: NCI tumour cell line growth inhibition, 48 h
Calls of active or inactive are those of the source. No stated cut-off is given here; in the data, active = GI50 up to about 1.1 µM and inactive = higher.
Outcomes: t (active), f (inactive)

{"columns": ["COMPOUND", "ASSIGNED_CLASS"],
 "data": [
  ["COc1ccc2nccc(NCCCN3CCN(CCCNc4ccnc5ccc(OC)cc45)CC3)c2c1", "t"],
  ["Cn1c(=O)c2[nH]cnc2n(CC(=O)O)c1=O", "f"],
  ["CC(C)(C)c1cc(C(O)(C(F)(F)F)C(F)(F)F)c2c(c1)C(C(F)(F)F)(C(F)(F)F)OC(C(C)(C)C)N2 (stereo not drawn)", "f"],
  ["COC(CN1C=C(Sc2ccccc2)CC1)OC", "f"],
  ["O=c1[nH]c(=O)n(C2CC(O)C(CO)O2)cc1C(F)(C(F)(F)F)C(F)(F)F (stereo not drawn)", "f"],
  ["Cc1ccc(NC(=O)CC(=O)n2nc(-c3ccccc3)c(/N=N/c3ccccc3Cl)c2-c2ccccc2)cc1", "f"],
  ["CC(C)CC12CC3CCC(CNC1=O)C32C (stereo not drawn)", "f"],
  ["COc1ccc(/C=C/c2cc(OC)cc(OC)c2)cc1", "f"],
  ["CCOC(=O)C1=C(C)N(C2OC(COC(=O)c3ccccc3)C(OC(=O)c3ccccc3)C2OC(=O)c2ccccc2)C(=S)NC1c1ccccc1 (stereo not drawn)", "f"],
  ["COC(=O)C(=O)C(C(=O)C=C(C)C)C(=O)C(=O)Nc1ccc(C)cc1C (stereo not drawn)", "f"],
  ["O=S(=O)(O)c1ccc(/N=N\\c2ccc(/N=N/c3ccc(/C=C/c4ccc(/N=[N+](\\[O-])c5ccc(/C=C/c6ccc(/N=N/c7ccc(/N=N/c8ccc(S(=O)(=O)O)cc8)c8ccccc78)cc6S(=O)(=O)O)c(S(=O)(=O)O)c5)cc4S(=O)(=O)O)c(S(=O)(=O)O)c3)c3ccccc23)cc1", "f"],
  ["COc1ccc2c(c1)C(O)(C(F)(F)F)c1cc(C(=O)C(F)(F)F)c3ccccc3c1N2 (stereo not drawn)", "f"],
  ["N#CC(C(=O)CCCC(=O)Nc1ccc(Cl)cc1Cl)c1ccccc1 (stereo not drawn)", "f"],
  ["Cc1ccc(-c2cc(-c3ccco3)c(C#N)c(=O)n2C2OC(CO)C(O)C(O)C2O)cc1 (stereo not drawn)", "f"],
  ["NC(=O)c1csc(C2CCC(CO)O2)n1 (stereo not drawn)", "f"],
  ["CCOC(=O)C(Cc1ccccc1)NC(=O)OC(C)(C)C (stereo not drawn)", "f"],
  ["COC(=O)C(Cc1cc(OC)c(OC)c(OC)c1)c1ccc(OC)cc1 (stereo not drawn)", "f"],
  ["COc1cc(CNc2nc3c(N)cc(C(F)(F)F)cc3nc2-c2ccccc2)cc(OC)c1OC", "f"],
  ["c1nc(N2CC2)c2cnn(C3CCCCO3)c2n1 (stereo not drawn)", "f"],
  ["CC(C)(C)C[P+](C)(C)c1ccccc1", "f"],
  ["O=C(Cc1c(C(=O)Nc2ccccc2)sc(C(=O)Nc2ccccc2)c1CC(=O)Nc1ccccc1)Nc1ccccc1", "f"],
  ["CCN(CC)CC(=O)Nc1ccc2c(c1)C(=O)c1ccc(NC(=O)CN(CC)CC)cc1C2=O", "f"],
  ["CCOC(=O)c1sc2c(C(=O)OCC)n3cc(C)cc(C)c3c2c1O", "f"]
]}
